- Tested on: Escherichia coli TOP10;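 further: peptides expressed intracellularly from a pBAD plasmid library in pooled LB shake-flask culture, induced with 0.3% L-arabinose, DNA abundance read by NGS, three biological replicates, DESeq2 with apeglm shrinkage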
- protocol: shrunken log2 fold change of peptide-encoding DNA abundance (4.5 h post-induction vs induction); higher = less antimicrobial activity (less host growth inhibition)
- assay conditions: time post-induction: 4.5 h; library: site-saturation at positions 5, 18, 19, 20
Classify by measured shrunken log2 fold change: t if it is equal to or exceeds -0.01, f if it is smaller.

Worked cases, answers included:
sequence input: RRIRGRPPRLPRPRPRPCSRPRP
label value: t
--
sequence input: RRIRRRPPRLPRPRPRPTSMPRP
label value: t
--
sequence input: RRIRSRPPRLPRPRPRPHASPRP
label value: t
--
sequence input: RRIRFRPPRLPRPRPRPDSTPRP
label value: f
--
sequence input: RRIRQRPPRLPRPRPRPGHDPRP
label value: f
--
sequence input: RRIRCRPPRLPRPRPRPSGHPRP
label value: f
--
sequence input: RRIRHRPPRLPRPRPRPGKSPRP
label value: f

Then this sequence:
Kindly determine if shrunken log2 fold change recorded for "RRIRSRPPRLPRPRPRPIFKPRP" is above or exactly -0.01. f

meta.source: the supplement of paper PMC9112550
